Form field: pIC50 (one value per entry).
system: Triple negative breast cancer cell line CAL51; experiment: Cell Titer Glo proliferation assay, CAL51; type: cell-based; conditions: Homo sapiens, CAL-51; CAL51 cell proliferation, Cell Titer Glo; read-out: Act. Level
pIC50: −log10 of the molar value.

[
  {
    "compound": "CNC(=O)c1ccc(-c2c[nH]c3nc(Nc4cn(C)nc4C)nc(OC4CCC4)c23)cc1",
    "pIC50": "> 7.00"
  },
  {
    "compound": "CNC(=O)c1ccc(Nc2nc(OC3CCCC3)c3c(-c4cc(F)c5nc(C)oc5c4)c[nH]c3n2)c(OC)c1",
    "pIC50": "6.40 to 7.00"
  },
  {
    "compound": "CNC(=O)c1ccc(Nc2nc(OC3CC3)c3c(-c4ccn(C)n4)c[nH]c3n2)c(OC)c1",
    "pIC50": "5.00 to 6.00"
  },
  {
    "compound": "CNC(=O)c1ccc(-c2c[nH]c3nc(Nc4ccc(C(=O)NC5COC5)cc4OC)nc(OCCOC)c23)cc1",
    "pIC50": "6.40 to 7.00"
  },
  {
    "compound": "COc1cc(C(=O)NC2COC2)ccc1Nc1nc(OC2(C)CCC2)c2c(-c3ccc4nc(C)oc4c3)c[nH]c2n1",
    "pIC50": "> 7.00"
  },
  {
    "compound": "CNC(=O)c1ccc(-c2c[nH]c3nc(Nc4ccc(C(=O)NC5CN(C)C5)cc4OC)nc(OC4CCC(C)(O)CC4)c23)cc1 (stereo not drawn)",
    "pIC50": "6.40 to 7.00"
  },
  {
    "compound": "CNC(=O)c1ccc(Nc2nc(OCCOC)c3c(-c4cnn(C)c4)c[nH]c3n2)c(OC)c1",
    "pIC50": "> 7.00"
  },
  {
    "compound": "CNC(=O)c1ccc(-c2c[nH]c3nc(Nc4ccc(C(=O)NC5CN(C)C5)cc4OC)nc(OC(C)(C)C)c23)cc1",
    "pIC50": "> 7.00"
  },
  {
    "compound": "COCCn1ncc(Nc2nc(OC3CCCC3)c3c(-c4ccc5nc(C)oc5c4)c[nH]c3n2)c1Cl",
    "pIC50": "> 7.00"
  },
  {
    "compound": "COCCOc1nc(Nc2ccc(C(=O)NC3CN(C)C3)cc2OC)nc2[nH]cc(-c3ccc4nc(C)oc4c3)c12",
    "pIC50": "5.00 to 6.00"
  },
  {
    "compound": "COc1cc(C(=O)N(C)C)ccc1Nc1nc(OC)c2c(-c3ccncc3)c[nH]c2n1",
    "pIC50": "> 7.00"
  },
  {
    "compound": "CNC(=O)c1ccc(-c2c[nH]c3nc(Nc4cnn(CC(C)(C)O)c4Cl)nc(OC4CCC4)c23)cc1",
    "pIC50": "> 7.00"
  },
  {
    "compound": "CNC(=O)c1ccc(Nc2nc(OC3CCCC3)c3c(-c4ccc(C(=O)OC)cc4)c[nH]c3n2)c(OC)c1",
    "pIC50": "5.00 to 6.00"
  },
  {
    "compound": "COc1cc(C(=O)NC2COC2)ccc1Nc1nc(OC)c2c(-c3ccncc3)c[nH]c2n1",
    "pIC50": "6.40 to 7.00"
  },
  {
    "compound": "COc1cc(C(=O)NC2COC2)ccc1Nc1nc(OC(C)(C)C)c2c(-c3ccc4nc(C)oc4c3)c[nH]c2n1",
    "pIC50": "> 7.00"
  }
]
